Documented Ratio IC50 across a set of compounds
Test: Selectivity ratio, ratio of IC50 for equine serum BuChE to IC50 for Electrophorus electricus AchE

>  <smilesCode>
O=C(N/N=C/c1cccc(O)c1)c1ccc(CN2CCC(CO)CC2)cc1

>  <reportedValue>
> 2.2

$$$$
>  <smilesCode>
O=C(N/N=C/c1ccc(O)cc1)c1ccc(CN2CCC(CO)CC2)cc1

>  <reportedValue>
> 1.2

$$$$
>  <smilesCode>
O=C(N/N=C/c1ccc(Cl)cc1)c1ccc(CN2CCC(CO)CC2)cc1

>  <reportedValue>
> 5.4

$$$$

In: Name the recorded Ratio IC50 for O=C(N/N=C/c1cccc(Cl)c1)c1ccc(CN2CCC(CO)CC2)cc1 .
Out: 15

In: Value lookup for Ratio IC50; key = O=C(N/N=C/c1ccc(F)cc1)c1ccc(CN2CCC(CO)CC2)cc1
Out: > 1.1

In: // Ratio IC50 lookup, key: COc1ccccc1/C=N/NC(=O)c1ccc(CN2CCC(CO)CC2)cc1
Out: 1

In: Give its Ratio IC50 value. Item: O=C(N/N=C/c1ccccc1Cl)c1ccc(CN2CCC(CO)CC2)cc1
Out: 1.4

In: I am curious: what Ratio IC50 value has been reported for O=C(N/N=C/c1ccccc1F)c1ccc(CN2CCC(CO)CC2)cc1 ?
Out: > 2.5

In: Report Ratio IC50 for O=C(N/N=C/c1ccc(N2CCCCC2)cc1)c1ccc(CN2CCC(CO)CC2)cc1 please.
Out: > 2.5

In: Look up Ratio IC50 for this compound: COc1ccc(/C=N/NC(=O)c2ccc(CN3CCC(CO)CC3)cc2)cc1
Out: > 2

In: Please report the recorded Ratio IC50 for O=C(N/N=C/c1ccccc1O)c1ccc(CN2CCC(CO)CC2)cc1 .
Out: > 5.1

In: Request the reported Ratio IC50 associated with O=C(N/N=C/c1cccc(F)c1)c1ccc(CN2CCC(CO)CC2)cc1
Out: > 3.6

====

Test system: SH-SY5Y
Assay: Antioxidant activity against t-BOOH induced neurotoxicity in human SH-SY5Y cells
Type: functional, cell-based
reportedProperty: IC50 (µM)
Expressed in µM, but write only the number.

In: # get_value(readout='IC50', item= O=C(N/N=C/c1ccccc1O)c1ccc(CN2CCC(CO)CC2)cc1 )
Out: 7.45

====

Biological target: Cholinesterase (Equus caballus)
Sequence (P81908 whole entry): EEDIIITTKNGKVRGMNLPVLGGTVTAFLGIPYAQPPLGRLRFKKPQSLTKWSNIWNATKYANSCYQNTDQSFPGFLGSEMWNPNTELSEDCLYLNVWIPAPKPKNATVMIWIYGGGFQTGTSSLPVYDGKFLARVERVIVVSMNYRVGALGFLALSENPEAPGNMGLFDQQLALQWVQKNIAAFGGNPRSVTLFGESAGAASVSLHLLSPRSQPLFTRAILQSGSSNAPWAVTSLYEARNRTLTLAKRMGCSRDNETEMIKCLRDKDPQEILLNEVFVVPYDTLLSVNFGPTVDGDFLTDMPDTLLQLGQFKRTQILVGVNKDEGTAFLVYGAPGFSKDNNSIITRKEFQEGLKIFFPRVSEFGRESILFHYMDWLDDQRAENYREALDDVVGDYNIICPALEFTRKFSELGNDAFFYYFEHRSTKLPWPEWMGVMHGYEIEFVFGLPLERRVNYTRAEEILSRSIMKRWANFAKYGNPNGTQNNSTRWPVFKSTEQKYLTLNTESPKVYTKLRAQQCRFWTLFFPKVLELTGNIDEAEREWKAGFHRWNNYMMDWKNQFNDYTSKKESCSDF
Assay: Inhibition of equine serum BuChE using butyrylthiocholine as substrate preincubated for 10 mins followed by substrate addition by spectrophotometric based Ellman's method
pIC50: −log10 of the molar value.
reportedProperty: pIC50

Solved cases (10 shown):
>  <smilesCode>
O=C(N/N=C/c1ccc(Cl)cc1)c1ccc(CN2CCC(CO)CC2)cc1

>  <reportedValue>
< 4.52

$$$$
>  <smilesCode>
O=C(N/N=C/c1cccc(Cl)c1)c1ccc(CN2CCC(CO)CC2)cc1

>  <reportedValue>
4.30

$$$$
>  <smilesCode>
O=C(N/N=C/c1ccccc1O)c1ccc(CN2CCC(CO)CC2)cc1

>  <reportedValue>
< 4.52

$$$$
>  <smilesCode>
COc1ccc(/C=N/NC(=O)c2ccc(CN3CCC(CO)CC3)cc2)cc1

>  <reportedValue>
< 4.52

$$$$
>  <smilesCode>
O=C(N/N=C/c1cccc(F)c1)c1ccc(CN2CCC(CO)CC2)cc1

>  <reportedValue>
< 4.52

$$$$
>  <smilesCode>
COc1ccccc1/C=N/NC(=O)c1ccc(CN2CCC(CO)CC2)cc1

>  <reportedValue>
4.89

$$$$
>  <smilesCode>
O=C(N/N=C/c1ccc(F)cc1)c1ccc(CN2CCC(CO)CC2)cc1

>  <reportedValue>
< 4.52

$$$$
>  <smilesCode>
O=C(N/N=C/c1ccccc1F)c1ccc(CN2CCC(CO)CC2)cc1

>  <reportedValue>
< 4.52

$$$$
>  <smilesCode>
O=C(N/N=C/c1ccc(N2CCCCC2)cc1)c1ccc(CN2CCC(CO)CC2)cc1

>  <reportedValue>
< 4.52

$$$$
>  <smilesCode>
O=C(N/N=C/c1ccccc1Cl)c1ccc(CN2CCC(CO)CC2)cc1

>  <reportedValue>
4.89

$$$$

In: I'd like to know its pIC50. The compound in question is O=C(N/N=C/c1ccc(O)cc1)c1ccc(CN2CCC(CO)CC2)cc1
Out: < 4.52

In: Please report the recorded pIC50 for O=C(N/N=C/c1cccc(O)c1)c1ccc(CN2CCC(CO)CC2)cc1 .
Out: < 4.52

====

The following compounds are shown together with reported IC50 values.
Target: UniProtKB O42275
Could you give me the number in µM? Just the number is fine.

>  <smilesCode>
COc1ccc(/C=N/NC(=O)c2ccc(CN3CCC(CO)CC3)cc2)cc1

>  <reportedValue>
15.3

$$$$

In: State the recorded IC50 for this entry: O=C(N/N=C/c1ccccc1Cl)c1ccc(CN2CCC(CO)CC2)cc1
Out: 9

In: Can you look up the measured IC50 of O=C(N/N=C/c1ccccc1O)c1ccc(CN2CCC(CO)CC2)cc1 for me?
Out: 5.9

In: Which IC50 is listed for O=C(N/N=C/c1cccc(Cl)c1)c1ccc(CN2CCC(CO)CC2)cc1 ?
Out: 3.3

In: Look up IC50: O=C(N/N=C/c1ccc(N2CCCCC2)cc1)c1ccc(CN2CCC(CO)CC2)cc1
Out: 12

In: Entry under review: O=C(N/N=C/c1cccc(F)c1)c1ccc(CN2CCC(CO)CC2)cc1 . Reported IC50?
Out: 8.2

In: Give its IC50 value. Item: O=C(N/N=C/c1ccc(F)cc1)c1ccc(CN2CCC(CO)CC2)cc1
Out: 26.4

In: Sample O=C(N/N=C/c1ccc(O)cc1)c1ccc(CN2CCC(CO)CC2)cc1 — what was its IC50?
Out: 25.1

In: For the compound COc1ccccc1/C=N/NC(=O)c1ccc(CN2CCC(CO)CC2)cc1 , what IC50 is on record?
Out: 13.5

In: // returns reported IC50 for input O=C(N/N=C/c1cccc(O)c1)c1ccc(CN2CCC(CO)CC2)cc1
Out: 13.9

In: Name the recorded IC50 for O=C(N/N=C/c1ccccc1F)c1ccc(CN2CCC(CO)CC2)cc1 .
Out: 12

In: Request the reported IC50 associated with O=C(N/N=C/c1ccc(Cl)cc1)c1ccc(CN2CCC(CO)CC2)cc1
Out: 5.6

====

Target: Acetylcholinesterase (Electrophorus electricus, UniProt O42275)
Sequence (O42275 whole entry): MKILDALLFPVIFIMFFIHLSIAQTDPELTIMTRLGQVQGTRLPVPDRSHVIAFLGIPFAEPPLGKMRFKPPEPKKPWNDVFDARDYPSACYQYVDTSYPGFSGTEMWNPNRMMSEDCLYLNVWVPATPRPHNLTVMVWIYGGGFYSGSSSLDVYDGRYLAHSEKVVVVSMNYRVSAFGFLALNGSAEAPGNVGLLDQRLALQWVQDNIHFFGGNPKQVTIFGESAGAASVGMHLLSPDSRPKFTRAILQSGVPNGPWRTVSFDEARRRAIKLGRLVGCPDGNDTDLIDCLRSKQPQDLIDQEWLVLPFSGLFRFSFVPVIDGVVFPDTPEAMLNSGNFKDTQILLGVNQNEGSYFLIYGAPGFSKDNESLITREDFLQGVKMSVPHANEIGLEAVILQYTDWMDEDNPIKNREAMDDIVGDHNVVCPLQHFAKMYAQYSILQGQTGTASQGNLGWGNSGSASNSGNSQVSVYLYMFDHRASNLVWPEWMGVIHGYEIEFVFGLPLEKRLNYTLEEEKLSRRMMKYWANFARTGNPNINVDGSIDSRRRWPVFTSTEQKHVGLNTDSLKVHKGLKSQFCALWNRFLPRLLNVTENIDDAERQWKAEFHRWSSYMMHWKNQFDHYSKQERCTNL
reportedProperty: Ki
Mention the unit after the number when you answer.

>  <smilesCode>
O=C(N/N=C/c1ccc(N2CCCCC2)cc1)c1ccc(CN2CCC(CO)CC2)cc1

>  <reportedValue>
6.24 µM

$$$$
>  <smilesCode>
O=C(N/N=C/c1ccc(Cl)cc1)c1ccc(CN2CCC(CO)CC2)cc1

>  <reportedValue>
3.55 µM

$$$$
>  <smilesCode>
O=C(N/N=C/c1cccc(Cl)c1)c1ccc(CN2CCC(CO)CC2)cc1

>  <reportedValue>
1.95 µM

$$$$

In: Ki of O=C(N/N=C/c1ccccc1O)c1ccc(CN2CCC(CO)CC2)cc1 on Acetylcholinesterase (Electrophorus electricus, UniProt O42275)?
Out: 3.81 µM
